Reported IC50 values for the following molecules.
- Test system: HCT116 WT cells
- EXPERIMENTAL DETAILS: HCT116 proliferation assay, WT cells (CellTiter-Glo, 6 days)
- Assay type: cell-based
- CONDITION INFO: Homo sapiens, HCT-116, 144 h, read-out: Prolif_HCT116-WT IC50

Reference set, count: 3
MOLECULE: Cc1cc2cc(C(=O)N(Cc3ccc4ccoc4c3)Cc3ccc(C(F)(F)F)cn3)ccc2nc1N [Example 622]
IC50: > 1 µM
//
MOLECULE: COc1ccc(CN(C(=O)c2cnc3nc(N)c(Br)cc3c2)[C@H](C)c2ncccc2F)nn1 [Example 735]
IC50: > 10 µM
//
MOLECULE: CC[C@H](c1ncccn1)N(Cc1ccc(C(F)(F)F)cn1)C(=O)c1cc2cc(Br)c(N)nc2cn1 (single isomer, unassigned) [Example 499]
IC50: > 10 µM

I am curious: what IC50 value has been reported for Cc1cc2cc(C(=O)N(Cc3ccc4[nH]c(N)nc4c3)Cc3ccc(C(F)(F)F)cn3)ccc2nc1N [Example 616] ?
> 1 µM

###

- Tested on: HCT116 MTAP null cells
- EXPERIMENTAL DETAILS: HCT116 proliferation assay, MTAP null cells (CellTiter-Glo, 6 days)
- Assay type: cell-based
- CONDITION INFO: HCT116-MTAP null, 144 h, read-out: Protif_ HCT116-MTAP null IC50
Reported IC50 values for the following molecules.
// units = nM; emit number, no label

Reference set, count: 5
MOLECULE: Cc1cc2cc(C(=O)N(Cc3ccc(C(F)(F)F)cn3)C3CC3)c(F)cc2nc1N
SYSTEM NAME: HCT116 MTAP null cells
VALUE OBSERVED: 479

MOLECULE: Cc1cc2cc(C(=O)N(Cc3ccc(C(F)F)nn3)[C@H](C)c3ncccn3)ccc2nc1N
SYSTEM NAME: HCT116 MTAP null cells
VALUE OBSERVED: 79

MOLECULE: Cc1cc2cc(C(=O)N(Cc3ncccc3F)[C@H](C)c3ccc(C(F)(F)F)cn3)ccc2nc1N
SYSTEM NAME: HCT116 MTAP null cells
VALUE OBSERVED: 342

MOLECULE: Cc1cc2cc(C(=O)N(CCc3ccon3)Cc3ccc(C(F)(F)F)cn3)ccc2nc1N
SYSTEM NAME: HCT116 MTAP null cells
VALUE OBSERVED: 580

MOLECULE: Cc1cc2cc(C(=O)N(Cc3ccc(C(F)(F)F)cn3)[C@@H]3CCc4ccccc43)ccc2nc1N
SYSTEM NAME: HCT116 MTAP null cells
VALUE OBSERVED: 38

I am curious: what IC50 value has been reported for COC[C@H](C1CC1)N(Cc1ccc(C(F)(F)F)cn1)C(=O)c1ccc2nc(N)c(C)cc2c1 (single isomer, unassigned) ?
594

I am curious: what IC50 value has been reported for Cc1cc2cc(C(=O)N(Cc3ccc(C(F)(F)F)cn3)Cc3ncc(Cl)cn3)ccc2nc1N ?
405

###

- System: HCT116 WT cells
- EXPERIMENTAL DETAILS: HCT116 proliferation assay, WT cells (CellTiter-Glo, 6 days)
- Format: cell-based
- CONDITION INFO: Homo sapiens, HCT-116, 144 h, read-out: Prolif_HCT116-WT IC50
Reported IC50 values for the following molecules.

I am curious: what IC50 value has been reported for Cc1cc2cc(C(=O)N(Cc3ccc(C(F)(F)F)cn3)Cc3ncn(C)n3)ccc2nc1N [Example 306] ?
> 10000 nM

I am curious: what IC50 value has been reported for Cc1cc2cc(C(=O)N(Cc3ccc(C(F)(F)F)cn3)CC3CCC3)ccc2nc1N [Example 562] ?
> 1000 nM
